- Tgt: T1, recombinant mouse ErbB2-ECD (mouse, UniProt P70424 23-653)
- T1 construct: extracellular domain
- Experiment Notes: indirect ELISA, coated ErbB2-ECD
Quantity Measured: binding result

1) 4G6 chimera (antibody, V domains shown, also called 4G6 chimeric antibody) VH: QVQLQQSGAELARPGASVKMSCKASGYTFTSYTMHWVKQRPGQGLEWIGYINPSSAYTNYNQKFKDKATLTADKSSSTANMQLNSLTSEDSAVYYCARASAYSLDYWGQGTALTVSS VL: DIQMTQSPSSLSASLGGKVTITCKASQDINKYIAWYQHKPGKGPRLLIHSTSTLYPGIPSRFSGSGSGRDYSFRITNLEPEDIATYYCLQYDNLLWTFGGGTKVGIR; no binding
2) 5F12 chimera (antibody, V domains shown, also called 5F12 chimeric; 5F12 chimeric antibody) VH: QVQLQQSGAELARPGASVKMSCKASGYTFTSYTMHWIKQRPGQGLEWIGYINPSSSYTNYNQNFKDKATLTADKSSSTANMQLNSLTSEDSAVYYCARASSYSLDYWGQGTALTVSS VL: DIQMTQSPSSLSTSLGGKVTITCKASQDINKYIAWYQHKPGKGPRLLIHSTSTLYPGIPSRFSGSGSGKDYSFRITNLEPEDIATYYCLQYDNLLWTFGGGTKLGIR; no binding
3) 4H2 chimera (antibody, V domains shown, also called 4H2 chimeric antibody) VH: QVQLQQSGAELARPGASVKMSCKASGFTFTSYTIHWVKQRPGQGLDWIGYINPSSGYTTYNQRFKDKATLTADKSSSTAYMQLSSLTSADSAVYYCARASAYSLDYWGQGTTLTVSS VL: DIQMTQSPSSLSASLGGKVTITCKASQDIDRYIAWYQHKPGKGPRLLIHYTSTLQPGIPSRFSGSGSGRNYSFSISNLEPEDIATYYCLKYDNLLWTFGGGTKLEIK; no binding
